Target: Full length LIGHT S192A on HEK293FF cells (Homo sapiens (Human), UniProt O43557 1-240)
Sequence (O43557 whole entry S192A): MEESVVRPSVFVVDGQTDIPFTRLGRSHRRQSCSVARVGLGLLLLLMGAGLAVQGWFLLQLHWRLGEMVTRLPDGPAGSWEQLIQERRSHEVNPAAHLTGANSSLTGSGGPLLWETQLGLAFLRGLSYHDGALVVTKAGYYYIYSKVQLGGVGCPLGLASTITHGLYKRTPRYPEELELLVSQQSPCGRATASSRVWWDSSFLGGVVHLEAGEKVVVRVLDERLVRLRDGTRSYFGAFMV
Experiment: flow cytometry, HEK293FF, mAb at EC50
RECORDED_ENDPOINT: % of WT binding

Requested field: % of WT binding. Item: 3B04 chimeric IgG4 mAb (antibody, V domains shown, also called Parental 3B04) VH: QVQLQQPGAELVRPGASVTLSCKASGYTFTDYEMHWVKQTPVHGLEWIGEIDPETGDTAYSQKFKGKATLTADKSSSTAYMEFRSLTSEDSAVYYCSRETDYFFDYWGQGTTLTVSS VL: DIQMTQTPASLSASVGETVTITCGASENIYGALNWYQRKQGKSPQLLIYGATNLADGMSSRFSGSGSGRQYSLKISSLHPDDFATYYCQNVLTTPWTFGGGTKLEIK
88%

Then there is this binder:
Requested field: % of WT binding. Item: 3E09 chimeric IgG4 mAb (antibody, V domains shown, Chimeric human IgG4 (S-to-P, L-to-E) with human CL, as m1; also called Parental 3E09) VH: EVQLVESGGGLVKPGGSLKLSCEASGFTFSDYYMYWVRQTPEKRLEWVAAIGDGGIYTYYADTVKGRFTISRDNAKNILYLQMSSLKSNDTAMYYCARGTGDGFAYWGQGTLVTVS VL: DIVLTQSPASLAVSLGQRATISCRASESVDSYGNSFMHWYQQKPGQPPKLLIYLASNLESGVPARFSGSGSRTDFTLTIDPVEADDAATYYCQQNNEDPYTFGGGTKLEIK
50%
